- assay-notes: Plasma levels after transdermal administration to hairless mice
- Assay type: in vivo
- condition-notes: mouse, in vivo
result-type: Peak plasma concentration of parent compound after prodrug compound

CC(=O)O.CCN(CC)CCOC(=O)C(C)c1cccc(Oc2ccccc2)c1 (stereo not shown) ... 20 mg/L
CC(=O)O.CCN(CC)CCOC(=O)Cc1cccc(C(=O)c2ccc(Br)cc2)c1N ... 20 mg/L
CC(=O)O.CCN(CC)CCOC(=O)C(C)c1ccc(CC2CCCC2=O)cc1 (stereo not shown) ... 2000 mg/L
CC(=O)O.CCN(CC)CCOC(=O)CCc1nc(-c2ccccc2)c(-c2ccccc2)o1 ... 2000 mg/L
CN(C)CCCC(=O)OC1=C(C(=O)Nc2ccccn2)N(C)S(=O)(=O)c2cc(Cl)sc21.Cl ... 20 mg/L

Notebook: CC(=O)O.CCN(CC)CCOC(=O)C(C)c1ccc(N2Cc3ccccc3C2=O)cc1 (stereo not shown) , Peak plasma concentration of parent compound after prodrug compound read as 2000 mg/L

Notebook: CC(=O)O.CCN(CC)CCOC(=O)Cc1cccc(C(=O)c2ccccc2)c1N , Peak plasma concentration of parent compound after prodrug compound read as 20 mg/L

Notebook: CC(=O)O.CCN(CC)CCOC(=O)C1CCc2cc(C3CCCCC3)c(Cl)cc21 (stereo not shown) , Peak plasma concentration of parent compound after prodrug compound read as 2000 mg/L

Notebook: CC(=O)O.CCN(CC)CCOC(=O)C(C)c1ccc(-c2ccccc2)c(F)c1 (stereo not shown) , Peak plasma concentration of parent compound after prodrug compound read as 2000 mg/L

Notebook: CC(=O)O.CCN(CC)CCOC(=O)C(C)c1ccc2c(c1)C(=O)Cc1cc(C)ccc1O2 (stereo not shown) , Peak plasma concentration of parent compound after prodrug compound read as 2000 mg/L

* * *

# key: entry, value: % (rate of writhing inhibition)
- Tested on: mice
- assay-notes: Analgesic activity, acetic acid writhing
- Type: in vivo
- condition-notes: 100 mg/kg transdermally, 60 minutes before acetic acid
Give the number; % is assumed, so skip it.

Notebook: CC(=O)O.CCN(CC)CCOC(=O)c1cccnc1Nc1cccc(C(F)(F)F)c1C , % (rate of writhing inhibition) read as 55

Notebook: CC(=O)O.CCN(CC)CCOC(=O)c1ccccc1Nc1c(Cl)ccc(C)c1Cl , % (rate of writhing inhibition) read as 59

Notebook: CC(=O)O.CCN(CC)CCOC(=O)c1ccccc1Nc1cccc(C(F)(F)F)c1 , % (rate of writhing inhibition) read as 54

Notebook: CC(=O)O.CCN(CC)CCOC(=O)c1ccccc1Nc1cccc(C)c1C , % (rate of writhing inhibition) read as 55

Notebook: CC(=O)O.CCN(CC)CCOC(=O)c1cccnc1Nc1cccc(C(F)(F)F)c1 , % (rate of writhing inhibition) read as 57

* * *

# key: entry, value: Peak plasma concentration after parent compound
- assay-notes: Plasma levels after transdermal administration to hairless mice
- Format: in vivo
- condition-notes: parent compound administered, hairless mice
The reply should consist of the numeric value with the unit placed after it.

Notebook: O=C(O)CCC(=O)c1ccc(-c2ccccc2)cc1 [Fenbufen, fenbufen, reference compound] , Peak plasma concentration after parent compound read as 10 mg/L

Notebook: O=C(c1ccccc1)c1ccc2n1CCC2C(=O)O (centres unmarked) [Ketorolac, ketorolac, reference compound] , Peak plasma concentration after parent compound read as 10 mg/L

Notebook: CCc1cccc2c3c([nH]c12)C(CC)(CC(=O)O)OCC3 (centres unmarked) , Peak plasma concentration after parent compound read as 0.1 mg/L

Notebook: CC(C(=O)O)c1ccc(CC2CCCC2=O)cc1 (centres unmarked) [Loxoprofen, loxoprofen, reference compound] , Peak plasma concentration after parent compound read as 10 mg/L

Notebook: Cc1cc(CC(=O)O)n(C)c1C(=O)c1ccc(Cl)cc1 [Zomepirac, zomepirac] , Peak plasma concentration after parent compound read as 0.1 mg/L

Notebook: O=C(O)Cc1sc(-c2ccccc2)nc1-c1ccc(Cl)cc1 [Fentiazac, fentiazac, reference compound] , Peak plasma concentration after parent compound read as 0.1 mg/L

Notebook: CN1C(C(=O)Nc2ccccn2)=C(O)c2sc(Cl)cc2S1(=O)=O [Lornoxicam, lornoxicam, reference compound] , Peak plasma concentration after parent compound read as 0.1 mg/L

Notebook: CC(C(=O)O)c1ccc2c(c1)[nH]c1ccc(Cl)cc12 (centres unmarked) , Peak plasma concentration after parent compound read as 10 mg/L

* * *

# key: entry, value: Blood glucose, Normal rats, Average
- System: normal rats
- assay-notes: Blood glucose in normal rats, oral with food
- Type: in vivo, rat
- condition-notes: average second to fifth week, equal to 20 mg/kg of NSAIAs every day
The reply should consist of the numeric value with the unit placed after it.

CC(=O)Oc1ccccc1C(=O)Oc1ccccc1C(=O)Oc1ccccc1C(=O)O.CCN(CC)CCOC(=O)c1ccccc1OC(=O)c1ccccc1OC(C)=O [P-60] ... 7.3 ± 1 mmol/L
CC(=O)O.CCN(CC)CCOC(=O)c1ccccc1OC(=O)c1ccccc1O [diethylaminoethyl salicylsalicylate.AcOH] ... 6.6 ± 1 mmol/L
CC(=O)Oc1ccc(-c2ccc(F)cc2F)cc1C(=O)O.CCN(CC)CCOC(=O)c1cc(-c2ccc(F)cc2F)ccc1OC(C)=O [P-8] ... 6.8 ± 1 mmol/L
CC(=O)O.CCN(CC)CCOC(=O)c1ccccc1O [diethylaminoethyl salicylate.AcOH] ... 6.9 ± 1 mmol/L
CCN(CC)CCOC(=O)c1cc(NC(C)=O)ccc1OC(C)=O [P-58] ... 7.2 ± 1 mmol/L
CC(=O)Oc1ccccc1C(=O)Oc1ccccc1C(=O)O.CCN(CC)CCOC(=O)c1ccccc1OC(=O)c1ccccc1OC(C)=O [P-59] ... 7.3 ± 1 mmol/L

normal rats data for CC(=O)Nc1ccc(OC(=O)c2ccccc2OC(=O)CCCN(C)C)cc1.Cl [P-6] ; its Blood glucose, Normal rats, Average: 6.4 ± 1 mmol/L

normal rats data for CC(=O)Oc1ccccc1C(=O)O.CCN(CC)CCOC(=O)c1ccccc1OC(C)=O [P-1] ; its Blood glucose, Normal rats, Average: 6.5 ± 1 mmol/L

* * *

- Test system: human skin tissue
- condition-notes: human, 20 %, pH 7.4
result-type: In vitro penetration rate (apparent flux), parent compounds (μg/cm^2/h)
Give the number; μg/cm^2/h is assumed, so skip it.

CC(C(=O)O)c1ccc(N2Cc3ccccc3C2=O)cc1 (stereo not drawn) ... 30
Cc1ccc(Cl)c(Nc2ccccc2C(=O)O)c1Cl [Meclofenamic acid, meclofenamic acid, reference compound] ... 10
O=C(O)C(Cl)c1ccc(C2CCCCC2)c(Cl)c1 (stereo not drawn) ... 40
O=C(c1ccccc1)c1ccc2n1CCC2C(=O)O (stereo not drawn) [Ketorolac, ketorolac, reference compound] ... 30

Notebook: CC(C(=O)O)c1ccc(CC2CCCC2=O)cc1 (stereo not drawn) [Loxoprofen, loxoprofen, reference compound] , In vitro penetration rate (apparent flux), parent compounds read as 30

Notebook: O=C(O)c1cccnc1Nc1cccc(C(F)(F)F)c1 , In vitro penetration rate (apparent flux), parent compounds read as 10

Notebook: Cc1cc(CC(=O)O)n(C)c1C(=O)c1ccc(Cl)cc1 [Zomepirac, zomepirac] , In vitro penetration rate (apparent flux), parent compounds read as 10

* * *

- assay-notes: Plasma levels after transdermal administration to hairless mice
- Format: in vivo
- condition-notes: mouse, in vivo
# key: entry, value: t, time to peak plasma level of parent compound after prodrug compound
Give the number; min is assumed, so skip it.

Example entries and their recorded answers appear below.
CC(=O)O.CCN(CC)CCOC(=O)C(Cl)c1ccc(C2CCCCC2)c(Cl)c1 (centres unmarked) ... 50
CC(=O)O.CCN(CC)CCOC(=O)C(C)c1ccc(-c2ccccc2)c(F)c1 (centres unmarked) ... 50
CC(=O)O.CCN(CC)CCOC(=O)Cc1cccc(C(=O)c2ccccc2)c1N ... 50
CC(=O)O.CCN(CC)CCOC(=O)c1ccccc1O [diethylaminoethyl salicylate.AcOH] ... 30
CC(=O)O.CCN(CC)CCOC(=O)C1CCc2cc(C3CCCCC3)c(Cl)cc21 (centres unmarked) ... 50
CC(=O)O.CCN(CC)CCOC(=O)C(C)c1ccc2c(c1)C(=O)Cc1cc(C)ccc1O2 (centres unmarked) ... 50

Notebook: CC(=O)O.CCN(CC)CCOC(=O)c1cc(-c2ccc(F)cc2F)ccc1O , t, time to peak plasma level of parent compound after prodrug compound read as 30

Notebook: C=C(C)CNc1ccc(C(C)C(=O)OCCN(CC)CC)cc1.CC(=O)O (centres unmarked) , t, time to peak plasma level of parent compound after prodrug compound read as 50

Notebook: CC(=O)O.CCN(CC)CCOC(=O)C(C)c1ccc2cc(OC)ccc2c1 (centres unmarked) , t, time to peak plasma level of parent compound after prodrug compound read as 50

Notebook: CC(=O)O.CCN(CC)CCOC(=O)CCc1nc(-c2ccccc2)c(-c2ccccc2)o1 , t, time to peak plasma level of parent compound after prodrug compound read as 50

Notebook: CC(=O)O.CCN(CC)CCOC(=O)COC(=O)Cc1c(C)n(C(=O)c2ccc(Cl)cc2)c2ccc(OC)cc12 , t, time to peak plasma level of parent compound after prodrug compound read as 50

Notebook: CC(=O)O.CCN(CC)CCOC(=O)Cc1cccc(C(=O)c2ccc(Br)cc2)c1N , t, time to peak plasma level of parent compound after prodrug compound read as 50
